melting point by entry:

Worked cases, answers included:
1. Nc1nc2ccccc2c2c1ncn2CCCCCCNC(=O)c1ccccc1 | 146 to 155 °C
2. Cc1cccc(Nc2cc(Cl)nc(SCC(=O)NC3CCCCC3)n2)c1C | 156 to 158 °C

Q: Consider the molecule COC(=O)c1ccc2nc(Sc3nnc(C)s3)c(C(F)(F)F)nc2c1 and give its recorded melting point.
A: 151 to 152 °C

Q: Consider the molecule CN1CCN(Cc2c(Cl)ccc(C(=O)O)c2Cl)C1=O and give its recorded melting point.
A: 221 °C

Q: Consider the molecule O=[N+]([O-])c1cc2c(c(Cl)c1OCc1ccccc1)CCCC2 and give its recorded melting point.
A: 80 to 82 °C

* * *

recorded-endpoint: melting point

Q: Consider the compound O=C1OCC(c2ccccc2)C1CS (configuration not stated) and give its recorded melting point.
A: 41 to 42 °C

Q: Consider the compound CCCCCCCNC(=O)Nc1ccccc1CCc1cc(C(C)C)c(O)c(C(C)C)c1 and give its recorded melting point.
A: 150 to 151 °C

Q: Consider the compound ClCc1c(Cl)ccc2cc(Cl)cnc12 and give its recorded melting point.
A: 129 °C

* * *

melting point by entry:

Q: Consider the compound COCCOc1nc(SC)c(C#N)c(N2CCc3ccccc3CC2)n1 and give its recorded melting point.
A: 108 to 111 °C

* * *

melting point by entry:

Worked cases, answers included:
1) CC[C@@]12CCCN1[C@@H](C(Cl)(Cl)Cl)OC2=O | 76 to 77 °C
2) C=CCN1C(=O)C(C)(C)c2ccc(-c3nc4ccccc4[nH]3)cc21 | 197 to 200 °C
3) COC(=O)c1cc(C(=O)c2c(C)c(NS(=O)(=O)c3cccc(OC)c3)c3ccccn23)ccc1NC(=O)C(F)(F)F | 220 °C
4) C[C@H]1c2cc(F)ccc2-c2ccccc2N1S(=O)(=O)c1ccc(OS(N)(=O)=O)cc1 | 166 to 167 °C
5) CON=C(C[N+](=O)[O-])NCc1cccnc1 | 77 to 78 °C
6) CCOc1nc(-c2ccc(NC(=O)NCc3cccnc3)cc2)ccc1C(=O)NC | 200 °C
7) CN1C(=O)C(c2ccc(OC(F)(F)F)cc2)(C23CC4CC(CC(C4)C2)C3)N=C1N (stereo not given) | 125 °C
8) Cn1ncc2c1-c1c(Oc3ccccc3)sc(C(=O)O)c1CC2 | 259 to 261 °C
9) Cc1ccc(Cn2c(=O)c3c(Cl)cc(Cl)cc3n(Cc3ccccc3)c2=O)o1 | 159 to 161 °C

Q: Consider the molecule COc1cc(/C=C/C(=O)/C=C/C(=O)O)cc(OC)c1OC and give its recorded melting point.
A: 152 to 154 °C

* * *

melting point by entry:

1. COC(=O)C1=C(C)Nc2nccn2C1c1cccc(C(C)=O)c1 (stereo unspecified) | 227 to 229 °C
2. CC1CN(c2cc3ccccc3c(=O)[nH]2)CC(C)N1 (stereo unspecified) | 208 to 210 °C
3. Cc1ccc(-c2nnc(N3CCC(OC(=O)Oc4ccccc4)CC3)nc2-c2ccc(C)cc2)cc1 | 142 to 143 °C
4. CSc1nnc(-c2snnc2C)o1 | 65 °C
5. COC(=O)c1cc2c(nc1C(=O)OC)N(C)CC2 | 132 to 133 °C

Now consider a different compound.
Q: Consider the compound COC1C(OC(=O)c2ccc([N+](=O)[O-])cc2)C=C(C)C(=O)CC1(C)C (stereo unspecified) and give its recorded melting point.
A: 136 to 138 °C

All values here come from a melting point compilation (Tetko et al.; mined from patent text by program, amines drawn as free bases though some values may be those of a salt).
